molecular target: Neuropeptides B/W receptor type 1 (Homo sapiens) (UniProt P48145); experiment: GPR7 receptor antagonists, confirmation, cell-based, fluorescence, single concentration (AID 1952); conditions: GPR7-expressing cells, calcium fluorescence antagonist mode; at 4.4 µM; active compounds read high;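 note: stimulated with the GPR7 agonist NPW; 0% = agonist plus vehicle and 100% = vehicle alone without agonist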
Sequence (P48145 whole entry, looked up): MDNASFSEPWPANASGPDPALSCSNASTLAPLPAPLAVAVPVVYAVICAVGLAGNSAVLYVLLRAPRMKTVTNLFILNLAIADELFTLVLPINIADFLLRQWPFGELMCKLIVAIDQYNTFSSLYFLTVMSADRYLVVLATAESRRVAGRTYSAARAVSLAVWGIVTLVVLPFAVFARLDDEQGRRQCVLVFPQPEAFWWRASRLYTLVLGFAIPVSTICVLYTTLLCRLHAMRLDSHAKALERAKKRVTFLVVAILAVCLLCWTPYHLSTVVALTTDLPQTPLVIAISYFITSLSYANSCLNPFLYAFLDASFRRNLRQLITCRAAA
In all, about 2,400 compounds went through this assay and about 1,200 (50%) were called active. So high a share suggests a set chosen from earlier hits. Not all results are given here.
measure-name: inhibition (%)
The reply should contain only the number, in %.

Query :: GET /values?readout=inhibition&system=Neuropeptides B/W receptor type 1 (Homo sapiens) (UniProt P48145)&item= CCC(C)c1ccccc1NC(=O)CN(C)CC(=O)Nc1ccccc1SC (centres undefined)
Result :: 19.5

Query :: GET /values?readout=inhibition&system=Neuropeptides B/W receptor type 1 (Homo sapiens) (UniProt P48145)&item= CCc1ccc(OCC2c3cc(OC)c(OC)cc3CCN2C(C)=O)cc1 (centres undefined)
Result :: 30

Query :: GET /values?readout=inhibition&system=Neuropeptides B/W receptor type 1 (Homo sapiens) (UniProt P48145)&item= "Cc1ccc(S(=O)(=O)n2cnc3ccccc32)c(C)c1"
Result :: -4.27

---
Query :: GET /values?readout=inhibition&system=Neuropeptides B/W receptor type 1 (Homo sapiens) (UniProt P48145)&item= COc1ccc(NC(=O)C2CCC(CNS(=O)(=O)c3csc(C(N)=O)c3)CC2)cc1OC (centres undefined)
Result :: -15.3

Query :: GET /values?readout=inhibition&system=Neuropeptides B/W receptor type 1 (Homo sapiens) (UniProt P48145)&item= Clc1ccc(C2CC(c3cccs3)n3ncnc3N2)cc1Cl (centres undefined)
Result :: 31.9

Query :: GET /values?readout=inhibition&system=Neuropeptides B/W receptor type 1 (Homo sapiens) (UniProt P48145)&item= "Clc1ccc(-c2cc(C3CCNCC3)[nH]n2)c(Cl)c1"
Result :: 34.3

Query :: GET /values?readout=inhibition&system=Neuropeptides B/W receptor type 1 (Homo sapiens) (UniProt P48145)&item= "O=[N+]([O-])c1ccc(N(CCO)Cc2ccccc2)c([N+](=O)[O-])c1"
Result :: 23.3

Query :: GET /values?readout=inhibition&system=Neuropeptides B/W receptor type 1 (Homo sapiens) (UniProt P48145)&item= "CCN1/C(=C\c2ccc3ccccc3[n+]2CC)Sc2cc(C)ccc21"
Result :: 49.3

Query :: GET /values?readout=inhibition&system=Neuropeptides B/W receptor type 1 (Homo sapiens) (UniProt P48145)&item= "Cc1cccc(-c2nc3ccc(C(=O)NCCN4CCN(C)CC4)cc3nc2-c2cccc(C)c2)c1"
Result :: 41.8

Query :: GET /values?readout=inhibition&system=Neuropeptides B/W receptor type 1 (Homo sapiens) (UniProt P48145)&item= COc1ccc(CS(=O)/C(Cl)=C(/Cl)C(=O)Nc2ccc(OC)nc2)cc1 (centres undefined)
Result :: 63.6

Query :: GET /values?readout=inhibition&system=Neuropeptides B/W receptor type 1 (Homo sapiens) (UniProt P48145)&item= CC1CN(C(=O)CCC(=O)NCCCN2CCC(Cc3ccccc3)CC2)c2cc(Cl)ccc2O1 (centres undefined)
Result :: 49.4

Query :: GET /values?readout=inhibition&system=Neuropeptides B/W receptor type 1 (Homo sapiens) (UniProt P48145)&item= "O=C(CN1C(=O)/C(=C/c2ccccc2F)Sc2ccccc21)NCc1cccnc1"
Result :: -18

Query :: GET /values?readout=inhibition&system=Neuropeptides B/W receptor type 1 (Homo sapiens) (UniProt P48145)&item= "CCN1CCN(c2c(Cl)cccc2NC(=O)c2ccc(Br)o2)CC1"
Result :: 21

Query :: GET /values?readout=inhibition&system=Neuropeptides B/W receptor type 1 (Homo sapiens) (UniProt P48145)&item= COc1ccc(OC)c(C(c2nnnn2C(C)(C)C)N2CCc3ccccc3C2)c1 (centres undefined)
Result :: 5.35

###

molecular target: Neuropeptides B/W receptor type 1 (Homo sapiens) (UniProt P48145); assay: GPR7 receptor antagonists, confirmation, cell-based, fluorescence, single concentration (AID 1952); conditions: GPR7-expressing cells, calcium fluorescence antagonist mode; at 4.4 µM; active compounds read high
The whole screen tested about 2,400 compounds, of which about 1,200 (50%) were called active. So high a share suggests a set chosen from earlier hits. Not all results are given here.
Response field class: string, computed from recorded inhibition by ranges small value (below 20%), mid value (20% to below 40%), large value (40% or more)

Query :: Given "Cc1cccc(NC(=O)c2cccc(C(=O)Nc3cccc(C)c3C)n2)c1C" , name the class its inhibition places it in.
Result :: mid value

Query :: Given CCc1ccc(N(C(=O)c2csnn2)C(C(=O)NC2CCCCC2)c2ccncc2)cc1 (configuration not stated) , name the class its inhibition places it in.
Result :: mid value

Query :: Given "COCCN(Cc1cc2cc3c(cc2nc1Cl)OCO3)C(=O)c1cccc(C)c1" , name the class its inhibition places it in.
Result :: small value

Query :: Given "COc1cc(OC)c(-n2cc(-c3ccc(Cl)cc3)[nH]c2=O)cc1Cl" , name the class its inhibition places it in.
Result :: large value

Query :: Given N#CC1=C(SCc2ccc(C#N)cc2)N=C(N)C(c2nc(-c3ccccc3)cs2)C12CCCCC2 (configuration not stated) , name the class its inhibition places it in.
Result :: large value

Query :: Given "CCN(CC)CCOCCOc1ccc(Cl)c2ccccc12" , name the class its inhibition places it in.
Result :: mid value

---
Query :: Given "O=C(CSc1nnc(-c2ccco2)o1)NCC(=O)c1ccccc1" , name the class its inhibition places it in.
Result :: small value

Query :: Given COc1ccc([N+](=O)[O-])cc1N(CC(O)CN(CC(C)C)CC(C)C)S(=O)(=O)c1ccc(C)cc1 (configuration not stated) , name the class its inhibition places it in.
Result :: mid value

###

Each entry below carries its reported inhibition.
target: Neuropeptides B/W receptor type 1 (Homo sapiens) (UniProt P48145); experiment: GPR7 receptor antagonists, confirmation, cell-based, fluorescence, single concentration (AID 1952); conditions: GPR7-expressing cells, calcium fluorescence antagonist mode; at 4.4 µM; active compounds read high;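 note: stimulated with the GPR7 agonist NPW; 0% = agonist plus vehicle and 100% = vehicle alone without agonist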
Out of some 2,400 compounds screened, about 1,200 (50%) were called active. The set was probably picked from earlier hits. Not all results are given here.
The reply should contain only the number, in %.

Look over these answered cases.
Query :: Would you kindly share the measured inhibition for "O=C(NC(=O)c1ccccc1)Nc1ccccc1O" ?
Result :: 12.2

Query :: Would you kindly share the measured inhibition for OC(CNCC1CCCO1)Cn1c2ccc(Br)cc2c2cc(Br)ccc21 (stereo unspecified) ?
Result :: 78.3

Query :: Would you kindly share the measured inhibition for Cc1ccc(CNC(=O)C2CCN(S(=O)(=O)c3ccc4nc5c(c(C(=O)O)c4c3)CC(C)CC5)CC2)cc1 (stereo unspecified) ?
Result :: 16.8

---
Query :: Would you kindly share the measured inhibition for "Cc1cc2c(cc1C)N(Cc1ccccc1)C1=NCCCN12" ?
Result :: 20.8

Query :: Would you kindly share the measured inhibition for CCCOc1ccccc1C1CC(=O)Nc2cc3c(cc21)OCO3 (stereo unspecified) ?
Result :: 24.6

Query :: Would you kindly share the measured inhibition for "CCN(CC)Cc1c(C(=O)OC)nnn1-c1nonc1N" ?
Result :: -1.39

Query :: Would you kindly share the measured inhibition for "Cc1ccccc1NC(=S)NC(=O)Cc1ccc(Cl)cc1" ?
Result :: 70.5

Query :: Would you kindly share the measured inhibition for "O=C(COc1ccc(S(=O)(=O)Nc2cccc(C(F)(F)F)c2)cc1)N1CCOCC1" ?
Result :: 19.6

###

molecular target: Neuropeptides B/W receptor type 1 (Homo sapiens); assay: GPR7 receptor antagonists, confirmation, cell-based, fluorescence, single concentration (AID 1952); settings: GPR7-expressing cells, calcium fluorescence antagonist mode; at 4.4 µM;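 note: stimulated with the GPR7 agonist NPW; 0% = agonist plus vehicle and 100% = vehicle alone without agonist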
About 1,200 (50%) of roughly 2,400 compounds were called active. Cut-off read from the data, not from the text of the source: active = inhibition above about 24%; inactive = the rest. So high a share suggests a set chosen from earlier hits. Only a sample is shown.
In this exercise, the only acceptable responses are yes (1) for active, no (0) for inactive

These recorded examples may help you get a feel for the data.
Query :: // param item: "CCN1CCN(c2ccc([N+](=O)[O-])cc2C(=O)c2ccc(Cl)cc2)CC1" ; yields the recorded call
Result :: yes (1)

Query :: // param item: "N=c1c2c(-c3ccccc3)c(-c3ccccc3)n(Cc3ccccc3)c2ncn1CCCO" ; yields the recorded call
Result :: yes (1)

Query :: // param item: "Cc1ccc(C(=O)C[n+]2cc(-c3ccccc3)n3c2CCCCC3)cc1" ; yields the recorded call
Result :: yes (1)

Query :: // param item: "COc1ccc(C)cc1NC(=O)NCCCCc1ccccc1" ; yields the recorded call
Result :: no (0)

Query :: // param item: Cc1ccc(NC2=C(Cl)C(=O)OC2OC(=O)c2ccccc2C)cc1 (stereo not given) ; yields the recorded call
Result :: no (0)

---
Query :: // param item: "Cc1ccc2nc(C)c3c(c2c1)N(c1ccccc1)CC3" ; yields the recorded call
Result :: yes (1)

###

biological target: Neuropeptides B/W receptor type 1 (Homo sapiens) (UniProt P48145); experiment: GPR7 receptor antagonists, confirmation, cell-based, fluorescence, single concentration (AID 1952); settings: GPR7-expressing cells, calcium fluorescence antagonist mode; at 4.4 µM;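 note: stimulated with the GPR7 agonist NPW; 0% = agonist plus vehicle and 100% = vehicle alone without agonist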
In all, about 2,400 compounds went through this assay and about 1,200 (50%) were called active. Cut-off read from the data, not from the text of the source: active = inhibition above about 24%; inactive = the rest. So high a share suggests a set chosen from earlier hits. The list is a sample of the results.
In this exercise, the only acceptable responses are active, inactive

Query :: // param item: "CCc1ccc2nc(N(CCCN(C)C)C(=O)c3ccc4c(c3)OCCO4)sc2c1" ; yields the recorded call
Result :: active

Query :: // param item: "CN(c1ccccc1)S(=O)(=O)c1ccc(C(=O)NCCc2ccccc2)cc1" ; yields the recorded call
Result :: active

Query :: // param item: COc1cc(OC)cc(C(=O)N[C@H](C(=O)OCC(=O)NC(C)c2ccccc2)C(C)C)c1 (some centres undefined) ; yields the recorded call
Result :: active

---
Query :: // param item: "CN(C)CCCN(C(=O)c1ccc(S(=O)(=O)N2CCCc3ccccc32)cc1)c1nc2ccc(F)cc2s1" ; yields the recorded call
Result :: active

Query :: // param item: "Cc1ccccc1CN1C(=O)c2ccccc2Sc2ccc(C(=O)NCCCN3CCOCC3)cc21" ; yields the recorded call
Result :: active

Query :: // param item: CS(=O)(=O)Nc1cccc(C2=NN(S(=O)(=O)c3ccccc3)C(c3cccs3)C2)c1 (centres undefined) ; yields the recorded call
Result :: inactive

Query :: // param item: "Cn1c(=O)c([N+](=O)[O-])c(Oc2ccccc2)c2ccccc21" ; yields the recorded call
Result :: inactive

Query :: // param item: "S=C(NCCc1ccccc1)Nc1ccccc1" ; yields the recorded call
Result :: inactive

Query :: // param item: "O=C(NCCCN1CCOCC1)c1ccc2c(c1)N(Cc1cccc(F)c1)C(=O)c1ccccc1S2" ; yields the recorded call
Result :: active

Query :: // param item: "Cc1ccc(O)c(NC(=S)NC(=O)COc2ccc(Br)cc2)c1" ; yields the recorded call
Result :: active
